experiment: Transepithelial transport of theaflavins across Caco-2 cell monolayers, with or without efflux transporter inhibitors; type: in vitro ADME, Human; details: human, Caco-2, with 10 μM FTC (BCRP inhibitor), absorptive transport, 2 h incubation, + 10 μM FTC (BCRP inhibitor)
EXPERIMENTAL_READOUT: Papp A→B at 2 h, 200 μM (×10⁻⁶ cm/s)
Give the quantity in ×10⁻⁶ cm/s, number only.

Reported Papp A→B at 2 h, 200 μM for O=C(O[C@@H]1Cc2c(O)cc(O)cc2O[C@@H]1c1cc(O)c(=O)c2c(O)c(O)cc([C@H]3Oc4cc(O)cc(O)c4C[C@H]3O)c2c1)c1cc(O)c(O)c(O)c1 [TF3G, theaflavin-3-gallate] : what is it?
0.109

For O=C(O[C@@H]1Cc2c(O)cc(O)cc2O[C@@H]1c1cc(O)c(O)c2c(=O)c(O)cc([C@H]3Oc4cc(O)cc(O)c4C[C@H]3O)cc12)c1cc(O)c(O)c(O)c1 [TF3’G, theaflavin-3’-gallate] then?
0.054

For `O=c1c(O)cc([C@H]2Oc3cc(O)cc(O)c3C[C@H]2O)cc2c([C@H]3Oc4cc(O)cc(O)c4C[C@H]3O)cc(O)c(O)c12` then?
0.31

For O=C(O[C@@H]1Cc2c(O)cc(O)cc2O[C@@H]1c1cc(O)c(=O)c2c(O)c(O)cc([C@H]3Oc4cc(O)cc(O)c4C[C@H]3OC(=O)c3cc(O)c(O)c(O)c3)c2c1)c1cc(O)c(O)c(O)c1 [TFDG, theaflavin-3, 3’-digallate] then?
0.375

Data origin, for the record: paper PMC8409943
